As shown below, each of these molecules has a reported IC50 value.
biological target: DNA repair nuclease/redox regulator APEX1 (Homo sapiens); assay: Inhibition of full length human APE1 assessed as reduction in endonuclease activity by measuring DNA cleavage of abasic sites using 6-FAM labelled two annealed oligonucleotides as AP site mimic substrate by fluorescence-based assay
Sequence (P27695 whole entry): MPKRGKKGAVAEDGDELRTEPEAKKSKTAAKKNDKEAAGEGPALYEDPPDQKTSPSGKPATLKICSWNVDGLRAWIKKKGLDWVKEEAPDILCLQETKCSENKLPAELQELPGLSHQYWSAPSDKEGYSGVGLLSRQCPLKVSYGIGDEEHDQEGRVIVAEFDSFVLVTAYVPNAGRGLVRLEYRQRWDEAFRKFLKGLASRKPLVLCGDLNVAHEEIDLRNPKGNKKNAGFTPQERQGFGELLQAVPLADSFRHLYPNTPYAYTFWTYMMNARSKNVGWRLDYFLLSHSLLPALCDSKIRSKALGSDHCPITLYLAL
The response must be a number in nM with no trailing unit.

Reference set (2 entries):
molecule: C[C@H]1/C=C/CC(=O)OCCCCC(=O)N[C@@H](Cc2c[nH]c3ccccc23)C(=O)N[C@H]1c1ccccc1
readout-kind: IC50
recorded-value: 63500
--
molecule: Cc1ccc(S(=O)(=O)n2cccc2[C@@H]2NC(=O)[C@H](Cc3c[nH]c4ccccc34)NC(=O)C[C@@H](c3ccc(C(F)(F)F)cc3)NC(=O)C/C=C/[C@@H]2C)cc1
readout-kind: IC50
recorded-value: 1300

Form field IC50, entry Cc1ccc(S(=O)(=O)n2cccc2[C@@H]2NC(=O)[C@H](Cc3c[nH]c4ccccc34)NC(=O)C[C@H](CCc3ccccc3)NC(=O)C/C=C/[C@@H]2C)cc1 : 2600

Per the records, this molecule ( Cc1ccc(S(=O)(=O)n2cccc2[C@@H]2NC(=O)[C@H](Cc3c[nH]c4ccccc34)NC(=O)C(Oc3ccc(C(F)(F)F)cc3)CCOC(=O)C/C=C/[C@@H]2C)cc1 (some centres not stated) ) has IC50 equal to 2500
